- tested.target: HIV-1 Env of isolate 97ZA012 (subtype C) (HIV-1)
- experiment.notes: cell-based or functional assay
endpoint: IC50 (µg/mL), pseudovirus neutralization

# binder, value.comparator, number
data = [
    ("PGT-125 (antibody, V domains shown) VH: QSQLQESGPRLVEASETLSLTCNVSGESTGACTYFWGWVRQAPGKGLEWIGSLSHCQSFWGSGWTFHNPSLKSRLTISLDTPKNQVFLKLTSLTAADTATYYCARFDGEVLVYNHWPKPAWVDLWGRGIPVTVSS VL: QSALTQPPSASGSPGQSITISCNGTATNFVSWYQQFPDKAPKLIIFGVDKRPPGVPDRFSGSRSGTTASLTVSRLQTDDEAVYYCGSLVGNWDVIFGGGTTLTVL", "=", 2.46),
    ("PGT-126 (antibody, V domains shown) VH: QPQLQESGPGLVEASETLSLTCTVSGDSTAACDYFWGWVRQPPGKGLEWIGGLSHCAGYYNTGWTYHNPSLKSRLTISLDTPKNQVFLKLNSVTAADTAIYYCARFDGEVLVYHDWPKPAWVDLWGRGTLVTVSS VL: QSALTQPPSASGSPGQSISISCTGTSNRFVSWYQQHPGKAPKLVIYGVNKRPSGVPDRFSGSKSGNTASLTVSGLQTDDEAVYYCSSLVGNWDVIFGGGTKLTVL", "=", 0.042),
    ("PGT-123 (antibody, V domains shown) VH: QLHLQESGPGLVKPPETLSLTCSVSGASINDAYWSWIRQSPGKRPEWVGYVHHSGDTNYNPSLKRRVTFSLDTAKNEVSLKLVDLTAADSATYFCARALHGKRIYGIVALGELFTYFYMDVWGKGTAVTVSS VL: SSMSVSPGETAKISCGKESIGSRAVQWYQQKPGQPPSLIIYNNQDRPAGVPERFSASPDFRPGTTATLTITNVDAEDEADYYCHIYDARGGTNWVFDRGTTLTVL", "=", 0.002),
    ("PGT-127 (antibody, V domains shown) VH: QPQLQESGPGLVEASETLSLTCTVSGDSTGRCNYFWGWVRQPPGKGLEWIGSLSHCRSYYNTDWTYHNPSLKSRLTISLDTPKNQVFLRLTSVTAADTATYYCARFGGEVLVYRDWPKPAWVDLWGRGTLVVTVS VL: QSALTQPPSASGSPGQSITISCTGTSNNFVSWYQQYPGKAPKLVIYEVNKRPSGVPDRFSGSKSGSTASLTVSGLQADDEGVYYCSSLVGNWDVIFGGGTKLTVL", ">", 50),
]
